Value source: patent US20230124087A1

Assayed System: Kv3.1 (Homo sapiens)
Construct: expressed in transfected cells
Test Name: Kv3.1 automated patch clamp (Qube) cellular electrophysiology assay
Assay type: cell-based
Mark met only when EC50 stays strictly below 20 µM. Values equal to the cut-off are not met.

CC(C)Oc1cc(Oc2ccc(-n3c(=O)[nH]c4ccccc43)cn2)ccc1C#N; not met
O=c1[nH]c2ncccc2n1-c1ccc(Oc2cccc3c2C2(CC2)CO3)nc1; met
O=c1[nH]c2cncnc2n1-c1ccc(Oc2cccc3c2C2(CC2)CO3)nc1; met

Inquiry: Quick check: EC50 of COc1cc(Oc2ccc(-n3c(=O)[nH]c4nccnc43)cn2)ccc1C under 20 µM?
Reply text: met

Inquiry: What do you have for COc1cc(Oc2ccc(-n3c(=O)[nH]c4ncccc43)cn2)ccc1C ?
Reply text: met

* * *

Assayed System: Kv3.1 (Homo sapiens, UniProt P48547)
Construct: expressed in transfected cells
Sequence (P48547 whole entry): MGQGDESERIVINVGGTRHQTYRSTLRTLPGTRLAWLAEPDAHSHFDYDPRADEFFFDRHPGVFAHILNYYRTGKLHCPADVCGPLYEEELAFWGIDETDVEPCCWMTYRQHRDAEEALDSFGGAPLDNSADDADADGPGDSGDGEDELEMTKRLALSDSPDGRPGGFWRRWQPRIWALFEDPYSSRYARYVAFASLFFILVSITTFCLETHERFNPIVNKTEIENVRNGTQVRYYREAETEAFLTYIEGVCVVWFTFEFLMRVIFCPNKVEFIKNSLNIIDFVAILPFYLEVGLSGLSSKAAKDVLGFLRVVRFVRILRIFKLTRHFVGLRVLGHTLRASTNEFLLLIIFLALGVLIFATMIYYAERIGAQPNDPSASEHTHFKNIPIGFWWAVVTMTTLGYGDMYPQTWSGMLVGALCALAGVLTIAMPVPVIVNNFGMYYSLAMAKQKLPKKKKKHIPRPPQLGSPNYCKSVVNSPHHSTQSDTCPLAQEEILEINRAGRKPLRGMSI
Test Name: Kv3.1 automated patch clamp (Qube) cellular electrophysiology assay
Assay type: cell-based
Endpoint: EC50 (µM)
Give the value in µM but do not write µM after it.

Take a look at these entries with their results.
Cc1ccc(Oc2ccc(-n3c(=O)[nH]c4cncnc43)cn2)cc1Cl; 12.2
CC(C)(C)c1cc(C#N)ccc1Oc1ccc(-n2c(=O)[nH]c3cncnc32)cn1; 4
COc1cc(Oc2ccc(-n3c(=O)[nH]c4cccnc43)cn2)cnc1C; 16.4

Inquiry: # lookup: EC50 of CC(C)c1cc(Oc2ccc(-n3c(=O)[nH]c4cnccc43)cn2)ccc1C#N
Reply text: 5.9

* * *

Assayed System: Kv3.1 (Homo sapiens, UniProt P48547)
Construct: expressed in transfected cells
Test Name: Kv3.1 automated patch clamp (Qube) cellular electrophysiology assay
Format: cell-based
Endpoint: EC50 (µM)
Give the value in µM but do not write µM after it.

O=c1[nH]c2cccnc2n1-c1ccc(Oc2cccc3c2C2(CC2)CO3)c(F)c1 [Example 8]; 2.3
CC(C)c1cc(Oc2ccc(-n3c(=O)[nH]c4cncnc43)cn2)ccc1C#N [Example 15]; 3.5

# input for lookup
Inquiry: Query (compound): Cc1cc(C#N)cc(C)c1Oc1ccc(-n2c(=O)[nH]c3cccnc32)cn1 [Example 38] ; field requested: EC50
Reply text: 5.2

* * *

# reported pEC50; entries follow
Assayed System: Kv3.1 (Homo sapiens, UniProt P48547)
Construct: expressed in transfected cells
Test Name: Kv3.1 automated patch clamp (Qube) cellular electrophysiology assay
Type: cell-based
Conceptually, pEC50 converts a concentration in mol/L into minus its log10.

COc1cc(Oc2ncc(-n3c(=O)[nH]c4cnccc43)cc2F)ccc1C [Example 44]; 5.54

Note: attention shifts to another entry.
Inquiry: Report pEC50 for O=c1[nH]c2ccncc2n1-c1ccc(Oc2cccc3c2C2(CC2)CO3)nc1 [Example 12] please.
Reply text: 5.41

* * *

Assayed System: Kv3.1 (Homo sapiens, UniProt P48547)
Construct: expressed in transfected cells
Test Name: Kv3.1 automated patch clamp (Qube) cellular electrophysiology assay
Assay type: cell-based
Protocol: In vitro, high-throughput cellular electrophysiology was employed to detect voltage-dependence of compounds in single concentration screening and IC50 determination for library and medicinal chemistry profiling compounds in 384 well plates. […] Currents through activated channels were measured directly by APC by employing depolarization voltage steps. […] Selectivity was assessed against Kv3.2, Kv3.3, and Kv3.4 overexpressing cell lines using similar methods.
Endpoint: EC50 (µM)
All answers are understood in µM, so give the number only.

CC(C)c1cc(Oc2ccc(-n3c(=O)[nH]c4cccnc43)cc2F)ccc1C#N; 4.7
CCc1cc(Oc2ccc(-n3c(=O)[nH]c4ccccc43)cn2)ccc1C#N; 18.5

Inquiry: Lab note: need EC50 for COc1cc(Oc2ccc(-n3c(=O)[nH]c4cc(C)cnc43)cn2)ccc1C on Kv3.1 (Homo sapiens, UniProt P48547), anyone have it?
Reply text: 2.5
